Test system: IICR (IP3 induced calcium release) in CHO cells
Experiment: Assay of IICR (IP3 induced calcium release)-inhibiting action
Type: cell-based, Chinese hamster
Details: Cricetulus griseus, CHO, test compound 30 μmol; CHO cells, 10 μM ATP; read-out: IICR level (percentage of inhibition)
Parameter threshold = 50%. Response is t when inhibition at 30 µM meets or exceeds it, else f.

{"given_smiles": "CC(C)N(CCC(=O)c1cccc2ccccc12)Cc1ccccc1", "label_class": "t"}

Request: Check the entry `Cc1csc(C(=O)CCN(Cc2ccccc2)C(C)C)n1` : does inhibition at 30 µM equal or exceed 50%?
Result: f

Request: Check the entry `CN(CCC(=O)c1ccncc1)Cc1ccccc1` : does inhibition at 30 µM equal or exceed 50%?
Result: t

Request: Check the entry `Cc1ccc(C(=O)CCN(Cc2ccccc2)C(C)C)s1` : does inhibition at 30 µM equal or exceed 50%?
Result: t

Request: Check the entry `CC(C)N(CC(=O)c1ccc(F)cc1)Cc1ccccc1` : does inhibition at 30 µM equal or exceed 50%?
Result: f

Request: Check the entry `Cc1ccc(C(=O)CCN(CCO)C(C)C)o1` : does inhibition at 30 µM equal or exceed 50%?
Result: f
